Tested on: HepG2 cells
testProtocol: Inhibition of the release of ApoB-100-associated lipoproteins from liver cells (HepG2), immunoassay
Assay type: cell-based
experimentalSetup: Homo sapiens; HepG2 culture supernatant; light adsorption at 450 nm vs solvent control; release of ApoB-100-associated particles
Checkbox rule: IC50 lower than 1 nM = Yes; IC50 not lower than 1 nM = No.

- compound: "Cn1c(=O)c2c3ccccc3n(Cc3ccc([C@H](C(=O)N[C@@H](CO)c4ccccc4)C4CCCC4)cc3)c2c(=O)n1C"
  targetUnderTest: "HepG2 cells"
  label: "No"
- compound: "Cc1nc(C)c2c3ccccc3n(Cc3ccc([C@@H](C(=O)N[C@@H](CO)c4ccccc4)C4CCCC4)cc3)c2n1"
  targetUnderTest: "HepG2 cells"
  label: "Yes"
- compound: "CSc1nnc2c3ccccc3n(Cc3ccc(C(C(=O)N[C@@H](CO)c4ccccc4)C4CCCC4)cc3)c2n1 (some centres unmarked)"
  targetUnderTest: "HepG2 cells"
  label: "No"
- compound: "Cn1c(=O)c2c(c3ccccc3n2Cc2ccc([C@@H](C(=O)N[C@@H](CO)c3ccccc3)C3CCCC3)cc2)n(C)c1=O (mixture of isomers)"
  targetUnderTest: "HepG2 cells"
  label: "No"
